In this section we review reported pIC50 values for a set of molecules.
- targetOfAssay: P2X7 (Homo sapiens)
- Sequence (Q99572 whole entry): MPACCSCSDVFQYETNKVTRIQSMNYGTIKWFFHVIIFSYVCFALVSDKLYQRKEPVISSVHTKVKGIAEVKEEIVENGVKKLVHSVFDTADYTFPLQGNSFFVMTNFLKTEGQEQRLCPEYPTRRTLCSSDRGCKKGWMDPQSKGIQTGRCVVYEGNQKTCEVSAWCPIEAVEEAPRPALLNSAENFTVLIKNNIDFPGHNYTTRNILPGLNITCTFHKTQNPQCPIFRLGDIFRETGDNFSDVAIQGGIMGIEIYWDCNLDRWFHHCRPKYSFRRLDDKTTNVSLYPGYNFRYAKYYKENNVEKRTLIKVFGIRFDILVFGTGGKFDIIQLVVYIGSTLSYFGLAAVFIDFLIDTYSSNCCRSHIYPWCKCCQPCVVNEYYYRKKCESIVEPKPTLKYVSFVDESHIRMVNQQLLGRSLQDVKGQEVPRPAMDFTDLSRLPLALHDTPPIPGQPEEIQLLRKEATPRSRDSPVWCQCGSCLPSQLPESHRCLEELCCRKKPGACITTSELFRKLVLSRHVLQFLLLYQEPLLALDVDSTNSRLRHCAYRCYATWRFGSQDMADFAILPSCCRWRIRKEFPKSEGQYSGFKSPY
- protocolNotes: YO-PRO-1 dye uptake assay in U373 cells stably expressing P2X7
- Format: cell-based
- Design: The complete open reading frame of human P2X7 was amplified from Incyte clone 148057; expressed in transfected cells
- particulars: dye uptake through P2X7, U373 cells, 300 μM BzATP, 5 μM YO-PRO-1, test compounds 30 nM to 3 μM; read-out: IC50
Structures can show the parent of a compound that is named as a salt.
# pIC50 = -log10(concentration in molar units)

>>> endpointresult("Clc1ccccc1CCC1=N[C@@H](c2ccccc2)[C@@H](c2ccccc2)N1 [trifluoroacetate]")
7.32

Asked: Give its pIC50 value. Item: Fc1cccc([C@H]2NC(Cc3ccc(F)cc3F)=N[C@H]2c2cccc(F)c2)c1 [trifluoroacetate]
Given back: 6.39

Asked: Now this one: Cc1ccc([C@H]2NC(NCc3ccccc3)=N[C@H]2c2ccc(C)cc2)cc1 [hydrochloride]
Given back: 6.56

Asked: Now this one: Fc1ccccc1CSC1=N[C@@H](c2ccccc2)[C@@H](c2ccccc2)N1
Given back: 6.09

Asked: Now this one: Cc1cccc([C@H]2NC(NCc3cccc(F)c3)=N[C@H]2c2cccc(C)c2)c1 [hydrochloride]
Given back: 6.92
